Values compiled from a melting point compilation (Tetko et al.).

melting point values, listed per item

Given Smiles: Nc1ccnc(Sc2ccccn2)c1
melting point: 99 to 101 °C
//
Given Smiles: O=C(O)c1ccc2nnn(O)c2c1
melting point: 229 to 231 °C
//
Given Smiles: Nc1cc(CO)ccc1Cl
melting point: 97 to 99 °C
//
Given Smiles: CC(C)(C)c1ccc2cc(C(=O)O)[nH]c2c1
melting point: 157 to 159 °C
//
Given Smiles: Cc1oc(-c2cccs2)nc1C(=O)O
melting point: 196 to 198 °C
//
Given Smiles: COCCOc1ccc(Cl)cc1S(=O)(=O)Cl
melting point: 38 to 40 °C
//
Given Smiles: Cn1nc(-c2ccncc2)cc1O
melting point: 209 to 211 °C
//
Given Smiles: C=Cc1nc(-c2cccc(Cl)c2)no1
melting point: 51 to 53 °C
//
Given Smiles: O=C(O)CS(=O)(=O)c1ccc([N+](=O)[O-])cc1
melting point: 162 to 164 °C
//
Given Smiles: OCc1noc(-c2ccc(F)cc2)n1
melting point: 96 to 98 °C
//
Given Smiles: Cc1ccc(-n2cc(S(=O)(=O)Cl)cn2)cc1S(=O)(=O)Cl
melting point: 114 to 116 °C
//
Given Smiles: Nc1ccc(Oc2ccc(F)cc2)nc1
melting point: 47 to 49 °C

* * *

Listed here: items and their measured melting point.
Measurement Name: melting point

Compound: NS(=O)(=O)c1ccccc1OC(F)F
Measurement Name: melting point
Meas Value: 133 to 135 °C
//
Compound: NC(=O)c1cccc(Oc2ccc(N)cn2)c1
Measurement Name: melting point
Meas Value: 195 to 197 °C
//
Compound: COC(=O)c1ccc(C)c(O)c1
Measurement Name: melting point
Meas Value: 119 to 121 °C
//
Compound: Cn1c(=O)c2ccccc2n2cc3ccccc3c12
Measurement Name: melting point
Meas Value: 164 to 166 °C
//
Compound: CCc1c(C(=O)O)cnn1Cc1ccccc1
Measurement Name: melting point
Meas Value: 124 to 126 °C
//
Compound: CS(=O)(=O)CCC(NC(=O)c1ccccc1Cl)C(=O)O (stereo not given)
Measurement Name: melting point
Meas Value: 159 to 161 °C
//
Compound: O=C(O)c1cc(S(=O)(=O)N2CCCCC2)ccc1N1CCCC1
Measurement Name: melting point
Meas Value: 120 to 122 °C
//
Compound: O=C(O)[C@@H]1CC(O)CN1C(=O)OCC1c2ccccc2-c2ccccc21 (stereo not given in full)
Measurement Name: melting point
Meas Value: 189 to 191 °C
//
Compound: CCOc1cc(C=CC#N)ccc1OC
Measurement Name: melting point
Meas Value: 57 to 59 °C
//
Compound: NS(=O)(=O)NCc1ccccc1
Measurement Name: melting point
Meas Value: 107 to 109 °C
//
Compound: NC(=NO)c1ccc2c(c1)OCO2
Measurement Name: melting point
Meas Value: 164 to 166 °C
//
Compound: Cn1c(S)nnc1-c1cncc(N)c1
Measurement Name: melting point
Meas Value: 206 to 208 °C
//
Compound: CN(C(=O)CC#N)c1ccccc1
Measurement Name: melting point
Meas Value: 86 to 88 °C
//
Compound: CCc1nc2sccc2c(=O)n1N
Measurement Name: melting point
Meas Value: 132 to 134 °C
//
Compound: O=C1Cn2ccnc2CN1
Measurement Name: melting point
Meas Value: 179 to 181 °C
//
Compound: O=c1c2ccccc2[nH]c2ccc(O)cc12
Measurement Name: melting point
Meas Value: 319 to 321 °C
//
Compound: O=C(O)c1ccc(-c2nc3ccccc3s2)s1
Measurement Name: melting point
Meas Value: 254 to 256 °C
//
Compound: Nc1cc(Br)ccc1-n1cncn1
Measurement Name: melting point
Meas Value: 114 to 116 °C
//
Compound: Cc1nc(C2(NC(=O)CCl)CCCCC2)no1
Measurement Name: melting point
Meas Value: 93 to 95 °C
//
Compound: CCOC(=O)C(C)NC(=O)c1ccc(N)cc1 (stereo not given)
Measurement Name: melting point
Meas Value: 127 to 129 °C
//
Compound: O=S(=O)(c1ccc(CCl)o1)N1CCCC1
Measurement Name: melting point
Meas Value: 81 to 83 °C
//
Compound: O=C(O)C1CC1c1cccc(Cl)c1Cl (stereo not given)
Measurement Name: melting point
Meas Value: 124 to 126 °C
//
Compound: Cc1cc(C)c(O)c(C(=O)O)c1
Measurement Name: melting point
Meas Value: 172 to 174 °C
//
Compound: COc1ccc(CCN)c(O)c1
Measurement Name: melting point
Meas Value: 98 to 100 °C
//
Compound: COc1c(Cl)cc(C(=O)O)cc1Cl
Measurement Name: melting point
Meas Value: 152 to 154 °C
//
Compound: Cc1ccnc(Br)c1[N+](=O)[O-]
Measurement Name: melting point
Meas Value: 54 to 56 °C
//
Compound: CCN(CC)S(=O)(=O)CC(=O)O
Measurement Name: melting point
Meas Value: 59 to 61 °C
//
Compound: CC(Cl)C(=O)NC1CCN(Cc2ccccc2)CC1 (stereo not given)
Measurement Name: melting point
Meas Value: 119 to 121 °C
//
Compound: CC(=O)NC(CC(=O)O)c1ccccc1 (stereo not given)
Measurement Name: melting point
Meas Value: 165 to 167 °C
//
Compound: NC(=O)c1c[nH]c(C2CC2)n1
Measurement Name: melting point
Meas Value: 216 to 218 °C
//
Compound: O=C(O)Cc1coc(-c2cccs2)n1
Measurement Name: melting point
Meas Value: 185 to 187 °C
//
Compound: CC(C)c1ccc(CCC(=O)O)cc1
Measurement Name: melting point
Meas Value: 71 to 73 °C
//
Compound: CC(Cl)C(=O)c1ccc2c(c1)NC(=O)CO2 (stereo not given)
Measurement Name: melting point
Meas Value: 186 to 188 °C
//
Compound: Nc1c(C(=O)O)cc(Br)c2c1C(=O)c1ccccc1C2=O
Measurement Name: melting point
Meas Value: 313 to 315 °C
//
Compound: CC(C)Nc1ccc(S(C)(=O)=O)cc1
Measurement Name: melting point
Meas Value: 111 to 113 °C
//
Compound: CCOC(=O)C(=O)c1nccn1C
Measurement Name: melting point
Meas Value: 52 to 54 °C
//
Compound: CS(=O)(=O)c1ccc(OCCCC(=O)O)cc1
Measurement Name: melting point
Meas Value: 150 to 152 °C
//
Compound: Cc1ccc(-c2nn(Cc3ccccc3)cc2C(=O)O)cc1
Measurement Name: melting point
Meas Value: 157 to 159 °C
//
Compound: CCN(CC)S(=O)(=O)c1ccc(F)c(C(=O)O)c1
Measurement Name: melting point
Meas Value: 161 to 163 °C
//
Compound: Brc1ccccc1Oc1ccncc1
Measurement Name: melting point
Meas Value: 68 to 70 °C
//
Compound: O=C(O)C=Cc1cc[nH]c1
Measurement Name: melting point
Meas Value: 183 to 185 °C
//
Compound: NS(=O)(=O)CC1CCC1
Measurement Name: melting point
Meas Value: 97 to 99 °C
//
Compound: Cc1cc(=O)[nH]c(-c2ccnc(Cl)c2)n1
Measurement Name: melting point
Meas Value: 269 to 271 °C
//
Compound: Cc1ccc(-n2c(S)nnc2-c2ccc(Cl)cc2)cc1
Measurement Name: melting point
Meas Value: 141 to 143 °C
//
Compound: Cc1nc2c(C(N)=O)cnn2c(C)c1CCC(=O)O
Measurement Name: melting point
Meas Value: 282 to 284 °C
//
Compound: O=c1cc(Cl)nc2ccc(Cl)cn12
Measurement Name: melting point
Meas Value: 219 to 221 °C
//
Compound: COCCS(=O)(=O)Cc1cccc(S(=O)(=O)Cl)c1
Measurement Name: melting point
Meas Value: 109 to 111 °C
//
Compound: CCCC(C)(N)C(=O)O (stereo not given)
Measurement Name: melting point
Meas Value: 269 to 271 °C
//
Compound: Cc1ccc(S(=O)(=O)Nc2cc(Cl)ccc2O)cc1
Measurement Name: melting point
Meas Value: 189 to 191 °C
//
Compound: N#CC1=C(Cl)CCCC1
Measurement Name: melting point
Meas Value: 38 to 40 °C

* * *

Measured melting point accompanies every entry in the list below.
Measurement Name: melting point

Given Smiles: CC(C)C(=O)CNC(=O)c1ccc([N+](=O)[O-])cc1
Meas Value: 106 to 108 °C
//
Given Smiles: Nc1ccc(NC(=O)Oc2ccccc2)cc1
Meas Value: 135 to 137 °C
//
Given Smiles: Nc1nc2cc(Br)ccc2o1
Meas Value: 172 to 174 °C
//
Given Smiles: COc1ccc2cc(C#N)ccc2c1
Meas Value: 105 to 107 °C

* * *

Compound: CN(C)S(=O)(=O)c1cccc(S(=O)(=O)Cl)c1
melting point: 97 to 99 °C
//
Compound: CCC(CC)n1ncc(C(=O)O)c1C
melting point: 154 to 156 °C
//
Compound: Cc1cc(C(=O)O)nn1C1CCCCC1
melting point: 145 to 147 °C
//
Compound: Nc1cc(OCC(F)(F)F)cc(OCC(F)(F)F)c1
melting point: 50 to 52 °C
//
Compound: CC1(c2ccc(O)cc2)NC(=O)NC1=O (stereo not given)
melting point: 240 to 242 °C
//
Compound: O=S(=O)(c1ccc(Cl)nc1)N1CCCCC1
melting point: 130 to 132 °C
//
Compound: CC(C)CN1CCCC(C(=O)O)C1 (stereo not given)
melting point: 108 to 110 °C
//
Compound: COCCn1cc(S(=O)(=O)Cl)cn1
melting point: 35 to 37 °C
//
Compound: CCC(C)Oc1cc(C(=O)O)ccn1 (stereo not given)
melting point: 83 to 85 °C
//
Compound: CC1CCC2(CC1)NC(=O)NC2=O (stereo not given)
melting point: 230 to 232 °C
//
Compound: CCOC(=O)C(=O)c1c(-c2ccc(C)cc2)nc2ccccn12
melting point: 116 to 118 °C
//
Compound: CC(C)CC(N)C(O)c1cccs1 (stereo not given)
melting point: 63 to 65 °C
//
Compound: O=C(CCl)Nc1sc2c(c1C(=O)c1ccccc1)CCCC2
melting point: 110 to 112 °C
//
Compound: Cc1cccc(C(C)C(=O)O)c1 (stereo not given)
melting point: 61 to 63 °C
//
Compound: CN(C)C(=O)c1cccc(C#N)c1
melting point: 87 to 89 °C
